# half-life per entry
Test: PK study of the 12 alkaloids in rat plasma after oral administration of ZJ and FZJ extract (LC–MS/MS)
Assay type: in vivo
Details: 3.76 g/kg; rat plasma, oral FZJ extract, mean ± SD, n = 6; read-out: t1/2
Respond with the figure and its unit, in that order.

Please review the following examples before continuing.
>>> measured_value("O=C1NCCc2cc3c(cc21)OCO3 [noroxyhydrastinine]")
"4.06 h"
>>> measured_value("COc1cc2c(cc1OC)-c1cc3ccc4c(c3c[n+]1CC2)OCO4 [epiberberine]")
"3.92 h"

Continue with the compound presented below.
input: # lookup: half-life of COc1cc2c(cc1OC)C(=O)NCC2
output: 3.89 h

----------
# Stability RE, 30 days at −20 °C per entry
Test: Stability of analytes in rat plasma under storage conditions
Assay type: physicochemical
Details: rat plasma, low QC concentration, n = 6
Value expressed in %; do not type the unit.

Please review the following examples before continuing.
>>> measured_value("Cn1c(=O)n(CCC2(O)C(=O)Nc3ccccc32)c(=O)c2ccccc21 (stereo not shown) [wuchuyuamide-I]")
14.46
>>> measured_value("CCCCC=CCCCCCCCc1cc(=O)c2ccccc2n1C")
8.28
>>> measured_value("COc1ccc2cc3[n+](cc2c1OC)CCc1cc2c(cc1-3)OCO2")
"−8.36"

Continue with the compound presented below.
input: # lookup: Stability RE, 30 days at −20 °C of COc1cc2c(cc1OC)-c1cc3ccc(OC)c(OC)c3c[n+]1CC2
output: −17.74

----------
Experiment: PK study of the 12 alkaloids in rat plasma after oral administration of ZJ and FZJ extract (LC–MS/MS)
Type: in vivo
Conditions: 3.76 g/kg; rat plasma, oral FZJ extract; read-out: Tmax (converted)
Readout name: Tmax
Respond with the figure and its unit, in that order.

input: # lookup: Tmax of COc1cc2c(cc1OC)-c1cc3ccc4c(c3c[n+]1CC2)OCO4 [epiberberine]
output: 3 h

input: # lookup: Tmax of O=C1NCCc2cc3c(cc21)OCO3 [noroxyhydrastinine]
output: 0.5 h

input: # lookup: Tmax of COc1ccc2cc3[n+](cc2c1OC)CCc1cc2c(cc1-3)OCO2 [berberine]
output: 3 h

----------
# Tmax per entry
Assay: PK study of the 12 alkaloids in rat plasma after oral administration of ZJ and FZJ extract (LC–MS/MS)
Type: in vivo
Details: 3.38 g/kg; rat plasma, oral ZJ extract; read-out: Tmax (converted)
Value expressed in h; do not type the unit.

Please review the following examples before continuing.
>>> measured_value("COc1cc2c(cc1OC)-c1cc3ccc4c(c3c(=O)n1CC2)OCO4 [8-oxoepiberberine]")
1.5
>>> measured_value("COc1cc2c(cc1OC)-c1cc3ccc4c(c3c[n+]1CC2)OCO4 [epiberberine]")
5
>>> measured_value("COc1cc2c(cc1OC)C(=O)NCC2")
1.5

input: # lookup: Tmax of Cn1c(=O)n(CCC2(O)C(=O)Nc3ccccc32)c(=O)c2ccccc21 (centres unmarked) [wuchuyuamide-I]
output: 1.5

input: # lookup: Tmax of O=c1c2c3c(ccc2cc2n1CCc1cc4c(cc1-2)OCO4)OCO3
output: 5
